Biological target: Genome polyprotein (Hepacivirus C, UniProt K7XJL6, A156T)
Experiment: Inhibition of HCV genotype 1b BK NS3/4A protease A156T mutant expressed in Escherichia coli incubated for 30 mins by time-resolved fluorescence assay
Set-up: species or system Hepatitis C virus (isolate BK)

Molecule: C=C[C@@H]1C[C@]1(NC(=O)[C@@H]1C[C@@H]2CN1C(=O)[C@H](C1CCCC1)NC(=O)OCC(C)(C)C[C@@H]1C[C@@H]1c1cc3c(cc(OCC)nc3cc1OC)O2)C(=O)NS(=O)(=O)C1CC1
Units of measure: nM
Ki: 2.8
--
Molecule: C=C[C@@H]1C[C@]1(NC(=O)[C@@H]1C[C@@H]2CN1C(=O)[C@H](C1CCCCC1)NC(=O)N1CC(C1)OCCC/C=C/c1cc3c(cc(OCC)nc3cc1OC)O2)C(=O)NS(=O)(=O)C1CC1
Units of measure: nM
Ki: 0.2
--
Molecule: C=C[C@@H]1C[C@]1(NC(=O)[C@@H]1C[C@@H]2CN1C(=O)[C@H](C1CCCC1)NC(=O)O[C@H]1C[C@H](C/C=C/c3cc4c(cc(OCC)nc4cc3OC)O2)C1)C(=O)NS(=O)(=O)C1CC1
Units of measure: nM
Ki: 4.8
--
Molecule: C=C[C@@H]1C[C@]1(NC(=O)[C@@H]1C[C@@H]2CN1C(=O)[C@H](C1CCCCC1)NC(=O)N1CC[C@H](C1)OC/C=C/c1cc3c(cc(OCC)nc3cc1OC)O2)C(=O)NS(=O)(=O)C1CC1
Units of measure: nM
Ki: 2.4
--
Molecule: C=C[C@@H]1C[C@]1(NC(=O)[C@@H]1C[C@@H]2CN1C(=O)[C@H](C1CCCCC1)NC(=O)N1CCC(CC1)OCCC/C=C/c1cc3ccc(OC)cc3nc1O2)C(=O)NS(=O)(=O)C1CC1
Units of measure: nM
Ki: 11

###

Molecular target: Genome polyprotein (Hepacivirus C, UniProt K7XJL6, A156V)
Assay: Inhibition of HCV genotype 1b BK NS3/4A protease A156V mutant expressed in Escherichia coli incubated for 30 mins by time-resolved fluorescence assay
Please respond with Yes when measured Ki is strictly beneath 0.02 µM, and with No in all other cases.

Molecule: C=C[C@@H]1C[C@]1(NC(=O)[C@@H]1C[C@@H]2CN1C(=O)[C@H](C1CCCCC1)NC(=O)N1CC[C@@H](C1)OC/C=C/c1cc3c(cc(OCC)nc3cc1OC)O2)C(=O)NS(=O)(=O)C1CC1
Assigned category: Yes
--
Molecule: C=C[C@@H]1C[C@]1(NC(=O)[C@@H]1C[C@@H]2CN1C(=O)[C@H](C1CCCC1)NC(=O)O[C@H]1C[C@H](C/C=C/c3cc4c(cc(OCC)nc4cc3OC)O2)C1)C(=O)NS(=O)(=O)C1CC1
Assigned category: Yes
--
Molecule: C=C[C@@H]1C[C@]1(NC(=O)[C@@H]1C[C@@H]2CN1C(=O)[C@H](C1CCCC1)NC(=O)N1CC[C@@H](C1)OCCCCCc1cc3ccc(OC)cc3nc1O2)C(=O)NS(=O)(=O)C1CC1
Assigned category: No
--
Molecule: C=C[C@@H]1C[C@]1(NC(=O)[C@@H]1C[C@@H]2CN1C(=O)[C@H](C1CCCCC1)NC(=O)N1CC(C1)OCCC/C=C/c1cc3c(cc(OCC)nc3cc1OC)O2)C(=O)NS(=O)(=O)C1CC1
Assigned category: Yes
--
Molecule: C=C[C@@H]1C[C@]1(NC(=O)[C@@H]1C[C@@H]2CN1C(=O)[C@H](C1CCCC1)NC(=O)OCC(C)(C)C[C@@H]1C[C@@H]1c1cc3c(cc(OCC)nc3cc1OC)O2)C(=O)NS(=O)(=O)C1CC1
Assigned category: Yes

###

Recorded Ki values for a group of compounds are listed next.
Target: Genome polyprotein (Hepacivirus C, UniProt K7XJL6, A156T)
Test: Inhibition of HCV genotype 1b BK NS3/4A protease A156T mutant expressed in Escherichia coli incubated for 30 mins by time-resolved fluorescence assay
Measured parameter: Ki (nM)

Compound: C=C[C@@H]1C[C@]1(NC(=O)[C@@H]1C[C@@H]2CN1C(=O)[C@H](C1CCCCC1)NC(=O)N1CCC[C@@H](C1)OCCCc1cc3c(cc(OCC)nc3cc1OC)O2)C(=O)NS(=O)(=O)C1CC1
Measured number: 1.9
//
Compound: C=C[C@@H]1C[C@]1(NC(=O)[C@@H]1C[C@@H]2CN1C(=O)[C@H](C1CCCCC1)NC(=O)O[C@@H]1COC[C@H]1C/C=C/c1cc3c(cc(OCC)nc3cc1OC)O2)C(=O)NS(=O)(=O)C1CC1
Measured number: 0.7
//
Compound: C=C[C@@H]1C[C@]1(NC(=O)[C@@H]1C[C@@H]2CN1C(=O)[C@H](C1CCCCC1)NC(=O)N1CCO[C@H](CCCCc3cc4c(cc(OCC)nc4cc3OC)O2)C1)C(=O)NS(=O)(=O)C1CC1
Measured number: 6.9
//
Compound: C=C[C@@H]1C[C@]1(NC(=O)[C@@H]1C[C@@H]2CN1C(=O)[C@H](C1CCCC1)NC(=O)O[C@@H]1CCC(CCCc3cc4c(cc(OCC)nc4cc3OC)O2)C1)C(=O)NS(=O)(=O)C1CC1 (mixture of isomers)
Measured number: 4.6

###

Assay: Inhibition of HCV subtype 3a NS3/4A protease incubated for 30 mins by time-resolved fluorescence assay
Set-up: species or system Hepatitis C virus subtype 3a
Please respond with Fulfilled when measured Ki is strictly beneath 4 nM, and with Not fulfilled in all other cases.

Compound: C=C[C@@H]1C[C@]1(NC(=O)[C@@H]1C[C@@H]2CN1C(=O)[C@H](C1CCCC1)NC(=O)OCC(C)(C)C[C@@H]1C[C@@H]1c1cc3c(cc(OCC)nc3cc1OC)O2)C(=O)NS(=O)(=O)C1CC1
Assigned category: Fulfilled
--
Compound: C=C[C@@H]1C[C@]1(NC(=O)[C@@H]1C[C@@H]2CN1C(=O)[C@H](C1CCCC1)NC(=O)N(C)[C@@H]1CCC[C@H]1C/C=C/c1cc3c(cc(OCC)nc3cc1OC)O2)C(=O)NS(=O)(=O)C1CC1
Assigned category: Fulfilled
--
Compound: C=C[C@@H]1C[C@]1(NC(=O)[C@@H]1C[C@@H]2CN1C(=O)[C@H](C1CCCC1)NC(=O)O[C@@H]1CCC(CCCc3cc4c(cc(OCC)nc4cc3OC)O2)C1)C(=O)NS(=O)(=O)C1CC1 (mixture of isomers)
Assigned category: Not fulfilled
--
Compound: C=C[C@@H]1C[C@]1(NC(=O)[C@@H]1C[C@@H]2CN1C(=O)[C@H](C1CCCCC1)NC(=O)N1CCC(CC1)OCCC/C=C/c1cc3ccc(OC)cc3nc1O2)C(=O)NS(=O)(=O)C1CC1
Assigned category: Not fulfilled
--
Compound: C=C[C@@H]1C[C@]1(NC(=O)[C@@H]1C[C@@H]2CN1C(=O)[C@H](C1CCCCC1)NC(=O)N1CCC[C@@H](C1)OCCCc1cc3c(cc(OCC)nc3cc1OC)O2)C(=O)NS(=O)(=O)C1CC1
Assigned category: Fulfilled
--
Compound: C=C[C@@H]1C[C@]1(NC(=O)[C@@H]1C[C@@H]2CN1C(=O)[C@H](C1CCCCC1)NC(=O)N1CC[C@@H](C1)OC/C=C/c1cc3c(cc(OCC)nc3cc1OC)O2)C(=O)NS(=O)(=O)C1CC1
Assigned category: Fulfilled
--
Compound: C=C[C@@H]1C[C@]1(NC(=O)[C@@H]1C[C@@H]2CN1C(=O)[C@H](C1CCCC1)NC(=O)N1CC(OCC)(CCCCc3cc4c(cc(OCC)nc4cc3OC)O2)C1)C(=O)NS(=O)(=O)C1CC1
Assigned category: Fulfilled
--
Compound: C=C[C@@H]1C[C@]1(NC(=O)[C@@H]1C[C@@H]2CN1C(=O)[C@H](C1CCCC1)NC(=O)O[C@H]1C[C@H](C/C=C/c3cc4c(cc(OCC)nc4cc3OC)O2)C1)C(=O)NS(=O)(=O)C1CC1
Assigned category: Not fulfilled

###

Recorded pKi values for a group of compounds are listed next.
Molecular target: Hepatitis C virus serine protease, NS3/NS4A (Hepatitis C virus, UniProt A3EZI9+D2K2A8, R155K)
Assay: Inhibition of HCV genotype 1b BK NS3/4A protease R155K mutant expressed in Escherichia coli incubated for 30 mins by time-resolved fluorescence assay
pKi: −log10 of the molar value.
Measured parameter: pKi

Compound: C=C[C@@H]1C[C@]1(NC(=O)[C@@H]1C[C@@H]2CN1C(=O)[C@H](C1CCCC1)NC(=O)O[C@@H]1CCC[C@H]1CCC/C=C/c1cc3ccc(OC)cc3nc1O2)C(=O)NS(=O)(=O)C1CC1
Measured parameter: pKi
Measured number: 9.70

Compound: C=C[C@@H]1C[C@]1(NC(=O)[C@@H]1C[C@@H]2CN1C(=O)[C@H](C1CCCC1)NC(=O)N1CC[C@@H](C1)OCCCCCc1cc3ccc(OC)cc3nc1O2)C(=O)NS(=O)(=O)C1CC1
Measured parameter: pKi
Measured number: 10.00

Compound: C=C[C@@H]1C[C@]1(NC(=O)[C@@H]1C[C@@H]2CN1C(=O)[C@H](C1CCCC1)NC(=O)OC1CCC1C/C=C/c1cc3c(cc(OCC)nc3cc1OC)O2)C(=O)NS(=O)(=O)C1CC1 (mixture of isomers)
Measured parameter: pKi
Measured number: 8.66

Compound: C=C[C@@H]1C[C@]1(NC(=O)[C@@H]1C[C@@H]2CN1C(=O)[C@H](C1CCCCC1)NC(=O)N1CC(C1)OCCC/C=C/c1cc3c(cc(OCC)nc3cc1OC)O2)C(=O)NS(=O)(=O)C1CC1
Measured parameter: pKi
Measured number: 9.70

Compound: C=C[C@@H]1C[C@]1(NC(=O)[C@@H]1C[C@@H]2CN1C(=O)[C@H](C1CCCCC1)NC(=O)N1CCO[C@H](CCCCc3cc4c(cc(OCC)nc4cc3OC)O2)C1)C(=O)NS(=O)(=O)C1CC1
Measured parameter: pKi
Measured number: 9.00

Compound: C=C[C@@H]1C[C@]1(NC(=O)[C@@H]1C[C@@H]2CN1C(=O)[C@H](C1CCCC1)NC(=O)O[C@@H]1CCC[C@H]1C/C=C/c1cc3c(cc(OCC)nc3cc1OC)O2)C(=O)NS(=O)(=O)C1CC1
Measured parameter: pKi
Measured number: 9.30

Compound: C=C[C@@H]1C[C@]1(NC(=O)[C@@H]1C[C@@H]2CN1C(=O)[C@H](C1CCCC1)NC(=O)N(C)[C@@H]1CCC[C@H]1C/C=C/c1cc3c(cc(OCC)nc3cc1OC)O2)C(=O)NS(=O)(=O)C1CC1
Measured parameter: pKi
Measured number: 9.22

Compound: C=C[C@@H]1C[C@]1(NC(=O)[C@@H]1C[C@@H]2CN1C(=O)[C@H](C1CCCCC1)NC(=O)O[C@@H]1CCC[C@H]1C/C=C/c1cc3c(cc(OCC)nc3cc1OC)O2)C(=O)NS(=O)(=O)C1CC1
Measured parameter: pKi
Measured number: 8.89

Compound: C=C[C@@H]1C[C@]1(NC(=O)[C@@H]1C[C@@H]2CN1C(=O)[C@H](C1CCCC1)NC(=O)OCC(C)(C)CCCc1cc3c(cc(OCC)nc3cc1OC)O2)C(=O)NS(=O)(=O)C1CC1
Measured parameter: pKi
Measured number: 8.92
